# method notes: chemical genetic growth profiling, strain panel (AID 1159580);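 note: tested at 20 µM; growth read once vehicle control cultures reached saturation at 30 °C; 1 = growth at the plate median or of vehicle wells; lower values mean less growth of the strain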
# measurement setup: S. cerevisiae deletion strains, growth OD, locus YBR171W, strain sec66
The campaign covered roughly 5,500 compounds. About 2,000 (36%) were called active. Another 18% or so got no clear call; they are omitted. Cut-off read from the data, not from the text of the source: active = normalized growth mostly below about 0.91 (no sharp cut-off); inconclusive = no clear call, values can overlap the other calls; inactive = mostly above about 0.92. The list shows a part of the results.
Output constraint: value belongs to 1 for active, 0 for inactive

Use the examples below as a reference point.
compound	classification
CC(=O)N[C@@H](CCC(=O)O)C(=O)O	0
CC(O)(P(=O)(O)O)P(=O)(O)O	0

# input Fill in: this test's call for "Nc1nc(F)nc2c1ncn2[C@@H]1O[C@H](COP(=O)(O)O)[C@@H](O)[C@@H]1O" is ___
# output 0

# input What call does the record list for "CN(C/C=C/C#CC(C)(C)C)Cc1cccc2ccccc12" ?
# output 1

# input Entry CC1CCC(NC(=O)N(CCCl)N=O)CC1 (stereo not given) : call = ?
# output 1

# input Which outcome did this test record for the compound NCC[C@@H](O)C(=O)N[C@@H]1C[C@H](N)[C@@H](O[C@H]2O[C@H](CN)[C@@H](O)[C@H](O)[C@H]2O)[C@H](O)[C@H]1O[C@H]1O[C@H](CO)[C@@H](O)[C@H](N)C1O (stereo not given in full) ?
# output 0

# input Please share the test call associated with "O=NN(CCCl)C(=O)NCCCl" .
# output 0

====

# method notes: chemical genetic growth profiling, strain panel (AID 1159580);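 note: tested at 20 µM; growth read once vehicle control cultures reached saturation at 30 °C; 1 = growth at the plate median or of vehicle wells; lower values mean less growth of the strain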
# measurement setup: S. cerevisiae deletion strains, growth OD, locus YOR144C, strain elg1, hits give low values
Out of some 5,500 compounds screened, about 2,000 (36%) were called active. Roughly 18% stayed inconclusive and do not appear here. The list shows a part of the results.
observation type: normalized growth
One number for each entry.

Reference set (4 entries):
molecule	normalized growth
C[C@]12CCC3c4ccc(OC(=O)c5ccccc5)cc4CCC3C1CCC2=O (stereo not given in full)	0.998
CC12CCC3C(=CCc4cc(O)ccc43)C1CCC2=O (stereo not given)	0.993
OC[C@H]1O[C@@H](n2cnc3c(NCc4ccco4)ncnc32)[C@H](O)[C@@H]1O	0.987
COP(=S)(OC)Oc1ccc([N+](=O)[O-])cc1	0.987

Hey, can you go through the list below and give me normalized growth for every item?
1. FC(F)(F)c1cccc(N2CCNCC2)c1
2. CCCCCCCCCCCC(=O)OCC(COP(=O)(O)OCC(O)COP(=O)(O)OCC(COC(=O)CCCCCCCCCCC)OC(=O)CCCCCCCCCCC)OC(=O)CCCCCCCCCCC (stereo not given)
3. C[C@]12CCC3c4ccc(OC(=O)CCC(=O)O)cc4CCC3C1CCC2=O (stereo not given in full)
4. Oc1c(Cl)cc(Cl)c(Cl)c1Cc1c(O)c(Cl)cc(Cl)c1Cl
5. C[C@]12CCC3C(CC[C@H]4C[C@H](O)CC[C@]34C)C1CC[C@@H]2O (stereo not given in full)
6. CC(=O)Oc1ccc2c(c1)CCC1C2CC[C@]2(C)C(=O)CCC12 (stereo not given in full)

# output
0.983
1.01
0.986
0.0552
0.994
1.01

====

# method notes: chemical genetic growth profiling, strain panel (AID 1159580);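 note: tested at 20 µM; growth read once vehicle control cultures reached saturation at 30 °C; 1 = growth at the plate median or of vehicle wells; lower values mean less growth of the strain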
# measurement setup: S. cerevisiae deletion strains, growth OD, locus YML070W, strain DAK1
About 2,000 (36%) of roughly 5,500 compounds were called active. Another 18% or so got no clear call; they are omitted. Rule as the data show it: active = normalized growth mostly below about 0.91 (no sharp cut-off); inconclusive = no clear call, values can overlap the other calls; inactive = mostly above about 0.92. The list shows a part of the results.
Hello, when you answer, please use one of the following outcomes: 1 (active), -1 (inactive)

molecule	classification
Cc1ccc(-c2nc(NS(=O)(=O)c3cccc4nonc34)sc2C)cc1Cl	-1
Cc1c(S(=O)(=O)Nc2cccc([N+](=O)[O-])c2)sc2ccc(Cl)cc12	-1
CC(C)(C)C1=C(C#N)C(c2c(Cl)cccc2Cl)C(C#N)=C(N)O1 (configuration not stated)	-1
N#CC(C#N)=Cc1c(-c2ccccc2Cl)[nH]c2ccccc12	-1
Clc1cc(Cl)cc(C=NCc2ccccc2)c1	1
CC1C(c2ccccc2)N(C)C(c2ccccc2)CC1(O)c1ccc(F)cc1 (configuration not stated)	-1
CNC(=O)Sc1c(-c2ccc(Cl)cc2)nn(C(=O)NC)c1SC	1
COc1ccc2c(c1)CCc1sc(NC(=O)c3ccco3)nc1-2	-1
Brc1ccc(-c2csc(-c3cccnc3)n2)cc1	-1
Clc1cccc(Nc2ncc(-c3ccc4c(c3)OCCCO4)s2)c1	-1

# input How was "CC1=CC(=O)N(c2ccc(OC(F)(F)F)cc2)C1=O" classified in this test?
# output 1

# input Recorded test call requested for "O=S(=O)(NCc1ccc(C(F)(F)F)cc1)c1cc(Br)c(Br)s1"
# output -1

# input Hey, what did the test say about "O=C(Nc1cc(Cl)ccc1O)c1ccccc1CSc1ccc(Cl)cc1" ?
# output -1

# input Lab log entry: "Clc1ccc(Oc2ccnc3cc(Cl)ccc23)cc1" — outcome as called in the assay?
# output -1
